tested_target: GalNAc(a1-3)GalNAc(b1-3)Gal(a1-4)Gal(b1-4)Glc
assay_info: glycan array binding signal (z-score within array); higher = stronger binding
test_parameters: glycan notation: IUPAC condensed, linker removed
About 410 targets per protein were measured; listed, in parts, are those with the strongest signals and a random draw of the rest.
Entry flag: T if glycan array binding signal (z-score) reaches -0.4; F if it does not.

binder	discrete_label
Epa11 (Candida glabrata) (protein) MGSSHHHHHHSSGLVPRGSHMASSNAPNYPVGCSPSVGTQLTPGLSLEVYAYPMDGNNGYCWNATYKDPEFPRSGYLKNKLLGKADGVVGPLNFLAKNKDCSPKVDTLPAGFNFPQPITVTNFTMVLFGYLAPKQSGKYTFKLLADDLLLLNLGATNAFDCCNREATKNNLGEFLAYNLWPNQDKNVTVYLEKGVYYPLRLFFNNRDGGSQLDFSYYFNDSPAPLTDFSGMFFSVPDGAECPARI	F
FimD (Bordetella pertussis) (protein) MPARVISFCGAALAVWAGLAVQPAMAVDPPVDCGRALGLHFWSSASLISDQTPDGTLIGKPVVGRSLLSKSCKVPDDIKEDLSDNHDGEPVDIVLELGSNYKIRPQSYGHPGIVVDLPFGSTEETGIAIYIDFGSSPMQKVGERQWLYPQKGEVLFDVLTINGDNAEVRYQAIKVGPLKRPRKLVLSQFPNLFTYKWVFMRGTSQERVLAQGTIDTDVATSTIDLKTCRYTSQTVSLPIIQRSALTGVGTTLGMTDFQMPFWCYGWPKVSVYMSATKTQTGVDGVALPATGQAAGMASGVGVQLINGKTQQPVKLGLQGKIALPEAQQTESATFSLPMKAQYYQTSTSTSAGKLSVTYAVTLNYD	T
Pwp5 ND (Candida glabrata) (protein) MGSSHHHHHHSSGLVPRGSHMASANPVPLTNVCYFPEEYPRQAGFRAITAGLASTILQGSVDELLNYSGLSSLTTQQTTTTTPNFQLPTLPLPTNVYGLTVVPLYLLVQLQGYFVPPVSGQYTFSLENTNDAAIIFFGNPSAFPCGDLSAWPQASADDITVTDGTFPSRTLFLKAGVAYPMRISYYNSLGSGNLAVSFTDPGGTKRTNWNGYIWRYNSCSTCTYT	F
AFCNVH (Aspergillus fumigatus) (protein) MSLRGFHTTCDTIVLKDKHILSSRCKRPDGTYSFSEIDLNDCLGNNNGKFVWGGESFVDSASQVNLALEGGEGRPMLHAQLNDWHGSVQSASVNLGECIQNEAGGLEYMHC	T
